measurementNotes: Aerosol performances by Next Generation Impactor (NGI)
Type: physicochemical
assayConditions: Example 1 formulation (3000 μg BDP per 10 mg shot), multidose DPI of WO 2016/000983, NGI, 3 doses
propertyMeasured: Delivered Dose (mg)
# number only, unit mg dropped from output

Determine from records and report Delivered Dose for CCC(=O)OCC(=O)[C@@]1(OC(=O)CC)[C@@H](C)C[C@H]2[C@@H]3CCC4=CC(=O)C=C[C@]4(C)[C@@]3(Cl)[C@@H](O)C[C@@]21C [BDP, beclometasone dipropionate, reference compound]
2.16
